Ref: the supplement of paper PMC10567573

Measured protein stability index values are reported for all entries that follow.
B1: KRT13 (parent)
chain: YGGGLGGGFGGGFAGGFVDFGACD

Variants of: B1
Experiment: protein stability index of a GFP-peptide fusion (GPS, HEK-293T) (PSI 1-6); higher = more stable;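 note: lentivirally expressed fusions sorted by FACS into six bins by GFP to DsRed ratio, PSI derived from sequencing read proportions per bin multiplied by bin number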
Conditions: c terminus: a fixed tail appended

sequence-text: YGGGLGGGFGGGDAGGFVDFGACD [F13D]
protein stability index: 2.1
--
sequence-text: YGGGLGGGFGGGFAKGFVDFGACD [G15K]
protein stability index: 1.18
--
sequence-text: YGGGLGGGFGVGFAGGFVDFGACD [G11V]
protein stability index: 2.4
--
sequence-text: YWGGLGGGFGGGFAGGFVDFGACD [G2W]
protein stability index: 2.56
--
sequence-text: YGGGLGGGFGGGFAGGFIDFGACD [V18I]
protein stability index: 1.6
--
sequence-text: YGGGLGGGFGGGFAGGDVDFGACD [F17D]
protein stability index: 2.43
--
sequence-text: YGGGLIGGFGGGFAGGFVDFGACD [G6I]
protein stability index: 3.11
--
sequence-text: YGGGLGGGFGGGFAHGFVDFGACD [G15H]
protein stability index: 1.65
--
sequence-text: YGGGLGGGFGGGFAGGFKDFGACD [V18K]
protein stability index: 2.09
--
sequence-text: YGGGLGGGFGGGSAGGFVDFGACD [F13S]
protein stability index: 2.16
--
sequence-text: YGGGLGGGFGGGFAGDFVDFGACD [G16D]
protein stability index: 1.94
--
sequence-text: YGEGLGGGFGGGFAGGFVDFGACD [G3E]
protein stability index: 2.33
--
sequence-text: YGGGLGGGFGGGFAGGFVDPGACD [F20P]
protein stability index: 1.69
--
sequence-text: YGGGLQGGFGGGFAGGFVDFGACD [G6Q]
protein stability index: 2.38
--
sequence-text: YGGGLGGGFGMGFAGGFVDFGACD [G11M]
protein stability index: 2.25
--
sequence-text: YGGGLGGNFGGGFAGGFVDFGACD [G8N]
protein stability index: 1.78
--
sequence-text: YGGGLGGGFGGRFAGGFVDFGACD [G12R]
protein stability index: 2.24
--
sequence-text: YGGGLGGGFGGGFAGGFQDFGACD [V18Q]
protein stability index: 1.92
--
sequence-text: YGFGLGGGFGGGFAGGFVDFGACD [G3F]
protein stability index: 1.88
--
sequence-text: YGGGLGGGFGGGFDGGFVDFGACD [A14D]
protein stability index: 1.86
--
sequence-text: YGGGLGGGFGTGFAGGFVDFGACD [G11T]
protein stability index: 1.84
--
sequence-text: YGGGLGGGFGGGFAGQFVDFGACD [G16Q]
protein stability index: 2.36
